test system: C. neoformans lysis, adenylate kinase release luminescence, 4 h; assay: fungal lysis via adenylate kinase leakage – AK release luminescence, dry powder, set 3, dose response (AID 743302)
Active and inactive are the calls of the source.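 How the source made its calls: active means fitted curve rises past activity 40 at a concentration no higher than the top valid tested dose; inconclusive means flat curve at 30 to 70 percent, or poor fit; inactive means the rest, including activity in the opposite direction.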
Your answer must be one of the following: 1.0 (active), 0.0 (inactive)

Consider the worked cases shown below.
[[record]]
chemical_smiles = "Fc1cccc(OCCn2c(=S)[nH]c3ccccc32)c1"
group_label = 1.0

[[record]]
chemical_smiles = "Cc1ccc(OCCn2c(SCCO)nc3ccccc32)c(C(C)C)c1"
group_label = 0.0

[[record]]
chemical_smiles = "Cc1ccc(C(C)C)c(OCCn2c(=S)[nH]c3cccc(Cl)c32)c1"
group_label = 0.0


Qu. I would be grateful if you could indicate the recorded call for Cc1ccc(C(C)C)c(OCCn2c(=S)[nH]c3cccc(C)c32)c1 .
Ans. 1.0

Qu. I would be grateful if you could indicate the recorded call for Cc1ccc(C(C)C)c(OCCn2c(=S)[nH]c3ccc(Cl)cc32)c1 .
Ans. 0.0

Qu. I would be grateful if you could indicate the recorded call for S=c1[nH]c2cc(Cl)ccc2n1CCOc1ccccc1 .
Ans. 1.0

Qu. I would be grateful if you could indicate the recorded call for Cc1ccc(C(C)C)c(OCCn2c(=S)[nH]c3c(C)cccc32)c1 .
Ans. 1.0

Qu. I would be grateful if you could indicate the recorded call for Cc1ccc(OCCn2cnc3ccccc32)cc1 .
Ans. 0.0

Qu. I would be grateful if you could indicate the recorded call for Cc1ccc(OCCn2c(=S)[nH]c3ccccc32)c(C)c1 .
Ans. 0.0

Qu. I would be grateful if you could indicate the recorded call for Cc1ccc(C(C)C)c(OCCn2c(=S)[nH]c3cccc(F)c32)c1 .
Ans. 0.0

Qu. I would be grateful if you could indicate the recorded call for Cc1cccc(OCCn2c(=S)[nH]c3cc(C(F)(F)F)ccc32)c1 .
Ans. 0.0

Qu. I would be grateful if you could indicate the recorded call for Cc1ccc(OCCn2c(=S)[nH]c3ccccc32)cc1 .
Ans. 1.0

Qu. I would be grateful if you could indicate the recorded call for CC(C)c1ccccc1OCCn1c(=S)[nH]c2ccccc21 .
Ans. 1.0

Qu. I would be grateful if you could indicate the recorded call for COc1ccc(OCCn2c(=S)[nH]c3ccccc32)cc1 .
Ans. 1.0

Qu. I would be grateful if you could indicate the recorded call for COCc1nc2ccccc2n1CCOc1ccc(C(C)(C)C)cc1 .
Ans. 1.0

Qu. I would be grateful if you could indicate the recorded call for Cc1ccc(C)c(OCCn2c(=S)[nH]c3ccccc32)c1 .
Ans. 1.0

Qu. I would be grateful if you could indicate the recorded call for CC(C)(C)c1ccccc1OCCn1c(=S)[nH]c2ccccc21 .
Ans. 1.0

Qu. I would be grateful if you could indicate the recorded call for CC(C)c1ccc(OCCn2c(=S)[nH]c3ccccc32)cc1 .
Ans. 1.0

Qu. I would be grateful if you could indicate the recorded call for Cc1ccc(C(C)C)c(OCCn2c(CO)nc3ccccc32)c1 .
Ans. 1.0
